All figures here come from paper PMC10661964.

Target: BCRP (Homo sapiens, UniProt Q9UNQ0)
Sequence (Q9UNQ0 whole entry): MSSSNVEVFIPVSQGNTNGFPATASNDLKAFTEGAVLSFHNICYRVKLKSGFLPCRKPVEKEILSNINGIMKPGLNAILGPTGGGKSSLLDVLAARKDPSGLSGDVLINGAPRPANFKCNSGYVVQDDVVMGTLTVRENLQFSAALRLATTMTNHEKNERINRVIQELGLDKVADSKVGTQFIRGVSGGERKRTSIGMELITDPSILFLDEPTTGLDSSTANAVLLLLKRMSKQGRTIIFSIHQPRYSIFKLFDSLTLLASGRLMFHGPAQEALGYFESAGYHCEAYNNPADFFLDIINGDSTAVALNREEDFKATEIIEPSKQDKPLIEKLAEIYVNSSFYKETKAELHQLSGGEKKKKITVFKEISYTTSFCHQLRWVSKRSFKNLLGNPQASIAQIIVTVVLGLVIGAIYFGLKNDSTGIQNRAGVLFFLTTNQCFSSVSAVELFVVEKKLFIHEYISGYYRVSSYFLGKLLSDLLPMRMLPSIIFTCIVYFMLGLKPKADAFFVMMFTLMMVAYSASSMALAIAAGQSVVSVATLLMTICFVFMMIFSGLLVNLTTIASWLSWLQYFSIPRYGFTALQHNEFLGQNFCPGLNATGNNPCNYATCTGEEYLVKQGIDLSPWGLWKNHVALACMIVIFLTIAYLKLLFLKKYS
Experiment: Efflux transporter inhibition
Assay type: in vitro ADME
Details: probe substrate fluvastatin
For each entry below, report its IC50 value.

> print(dat)
                                   compound    result
1  CC1CS(=O)(=O)CCN1N (centres unmarked) [M-6]  > 200 µM

Now for another entry.
Supply reported IC50 belonging to this compound: CC1CS(=O)(=O)CCN1n1cc(SCC(N)C(=O)O)ccc1=O (centres unmarked) [M-4]
> 20 µM

---

Test: Quantification of nifurtimox and metabolites in rat plasma after a single high dose (200 mg/kg)
Assay type: in vivo, Wistar rats
Settings: female, Wistar, rat, plasma, po, 200 mg/kg; read-out: AUC, female animals
Please go through the items and note down their AUC.
Numbers only, in µM·h.

> print(dat)
                                   compound  readout.number
1  CC(=O)NC(CSc1ccc(=O)n(N2CCS(=O)(=O)CC2C)c1)C(=O)O (stereo not shown)            2.43

List AUC for every entry below, keeping the order given.
1. CC1CS(=O)(=O)CCN1/N=C/C(=O)CCC(=O)O (stereo not shown)
2. CC1CS(=O)(=O)CCN1/N=C/C(CCC(=O)O)=N\O (stereo not shown)
3. CC1CS(=O)(=O)CCN1n1cc(SCC(N)C(=O)O)ccc1=O (stereo not shown)
4. CC1CS(=O)(=O)CCN1N (stereo not shown)
5. CC1CS(=O)(=O)CCN1/N=C/c1ccc([N+](=O)[O-])o1 (stereo not shown) [Nifurtimox, reference compound]
6. CC1CS(=O)(=O)CCN1/N=C/C(=O)CCC#N (stereo not shown)

1. 3.7
2. 3.63
3. 7.41
4. 96.1
5. 121
6. 44.2
